system: H1975 cells; experiment: Cellular growth inhibition (sulforhodamine B); format: cell-based, Human; conditions: Homo sapiens, NCI-H1975; Table 7; initial 4 hours anoxic; read-out: Cellular Growth Inhibition IC50 H1975 Anoxic
measurement name: pIC50
# pIC50 = -log10(concentration in molar units)

Provide pIC50, tested on H1975 cells, for Cn1cnc([N+](=O)[O-])c1C[N+]1(CCOc2ccc(Nc3ncc4cc(-c5c(Cl)cccc5Cl)c(=O)n(C)c4n3)cc2)CCCCC1.[Br-] .
5.70

---

test system: A431 cells; experiment: Cellular growth inhibition (sulforhodamine B); settings: Table 3
measurement name: A431 HCR (Hypoxic Cytotoxicity Ratio) (fold)
Numeric only. Scale: fold

Use these answered entries as a reference point.
[[record]]
compound = "C[N+](C)(C/C=C/C(=O)Nc1ccc2ncnc(Nc3cccc(Br)c3)c2c1)Cc1ccc([N+](=O)[O-])cc1"
assayed_system = "A431 cells"
observed_measurement = 1.0

[[record]]
compound = "COc1cc2ncnc(Nc3ccc(F)c(Cl)c3)c2cc1NC(=O)/C=C/CN(C)C"
assayed_system = "A431 cells"
observed_measurement = 1.7

[[record]]
compound = "Cn1cc([N+](=O)[O-])nc1C[N+](C)(C)C/C=C/C(=O)Nc1ccc2ncnc(Nc3cccc(Br)c3)c2c1"
assayed_system = "A431 cells"
observed_measurement = 1.3

[[record]]
compound = "O=C(/C=C/CN1CCCCC1)Nc1ccc2ncnc(Nc3cccc(Br)c3)c2c1 [Compound 12, reference compound]"
assayed_system = "A431 cells"
observed_measurement = 0.4

[[record]]
compound = "Cn1cnc([N+](=O)[O-])c1C[N+]1(C/C=C/C(=O)Nc2ccc3ncnc(Nc4cccc(Br)c4)c3c2)CCCCC1.[Br-]"
assayed_system = "A431 cells"
observed_measurement = 26.9

[[record]]
compound = "O=C(/C=C/CN1CCOCC1)Nc1ccc2ncnc(Nc3cccc(Br)c3)c2c1 [Compound 13, reference compound]"
assayed_system = "A431 cells"
observed_measurement = 0.5


Give A431 cells A431 HCR (Hypoxic Cytotoxicity Ratio) for the following compound: Cn1ncc([N+](=O)[O-])c1C[N+](C)(C)C/C=C/C(=O)Nc1ccc2ncnc(Nc3cccc(Br)c3)c2c1
10.4

Determine reported A431 HCR (Hypoxic Cytotoxicity Ratio) for C[N+](C)(C/C=C/C(=O)Nc1ccc2ncnc(Nc3cccc(Br)c3)c2c1)Cc1ccccc1[N+](=O)[O-] ; test system: A431 cells.
5.8

# lookup: A431 cells A431 HCR (Hypoxic Cytotoxicity Ratio), key = Cn1cnc([N+](=O)[O-])c1C[N+](C)(C)CCCC(=O)Nc1ccc2ncnc(Nc3cccc(Br)c3)c2c1
3.4
